# studySystem: wild-type human Pin1 PPIase domain (human, UniProt Q13526 1-163)
# Sequence (Q13526 whole entry, the tested form may be a part): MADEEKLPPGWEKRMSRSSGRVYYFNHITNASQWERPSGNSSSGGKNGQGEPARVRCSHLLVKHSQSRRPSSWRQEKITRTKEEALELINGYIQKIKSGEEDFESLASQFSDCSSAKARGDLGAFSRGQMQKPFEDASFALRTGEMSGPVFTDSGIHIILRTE
# measurementDescription: ITC; 1.5 uL injections of 10 mM Cdc25C phosphor-peptide into 200 uL of 0.2 mM wild-type or S138A Pin1 PPIase domain in the cell; Microcal Auto iTC200; single-site fit with the stoichiometry fixed to n = 1; in triplicate; buffer and temperature not stated
# experimentalParameters: both partners purified
pKd: −log10 of the molar value. Square brackets hold non-standard residues; d marks the D form. Ends that are not written are not given here. pT = C[C@@H](OP(=O)(O)O)[C@H](N)C(=O)O
reportedEndpoint: pKd

binder="EQPL[pT]PVTDL (Phosphopeptide named Cdc25C; also called phosphorylated peptide Cdc25C; Cdc25C phosphor-peptide; source: bought: Funakoshi (Tokyo, Japan), used without further purification) [phosphor-peptide Cdc25C (EQPLpTPVTDL)]" reportedvalue=2.74
